molecular target: DRB1*0401 (DR4w4) (Homo sapiens, UniProt P01903+P01911, A100K/A169T/F76Y/I96L/K127E/L162R/M171V/N62H/P40V/Q125Y/R42H/S133A/S149N/S66Y/V115G/V209L/W38E); construct: used as sources of human HLA class II molecules; endogenous in cells; host or cells: PREISS (EBV-transformed homozygous B cell line); experiment: Class II peptide-binding assay, DR4w4; settings: read-out: DR4w4 nM (In IC50 Format); purified HLA DR4w4;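 note: unlabeled test peptides compete with a radiolabeled probe peptide for binding to affinity-purified HLA-DR, with DR amount titrated to capture a small fraction of label, IC50 approximating Kd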
Ends that are not written are not given here.
Measure: pIC50
Worth noting: pIC50 values are minus log10 of concentrations stated in mol/L.

pIC50 for YARFQSQETLKAKT-NH2 [Peptide 717.17] is 8.28

pIC50 for YARFQSQTTIKAKT-NH2 [Peptide 717.19] is 8.49

pIC50 for YARFNSQTTLKAKT-NH2 [Peptide 717.44] is 8.38

pIC50 for YSRFQSQTTLKAKT-NH2 [Peptide 717.38] is 8.00

pIC50 for INSWVESQTNGIIRNVLQPS [Peptide 732.01] is 6.78

pIC50 for YARFQSETTEKAKT-NH2 [Peptide 717.07] is 7.19

pIC50 for KSNTATSATQRLANSLVH [Peptide 735.01] is 6.36

pIC50 for YARFQSQTTLKAKE-NH2 [Peptide 717.28] is 7.58

pIC50 for YARFQSQTTLKAKT-NH2 [Peptide 717.02] is 8.43

pIC50 for YARFQSQTALKAKT-NH2 [Peptide 717.52] is 8.34

pIC50 for YARFQSATTLKAKT-NH2 [Peptide 717.54] is 8.39

pIC50 for YARFQSQTSLKAKT-NH2 [Peptide 717.31] is 8.29

pIC50 for YARFQSQTTLKAET-NH2 [Peptide 717.26] is 7.74

pIC50 for YAEFQSQTTLKAKT-NH2 [Peptide 717.41] is 7.49

pIC50 for YARYQSQTTLKAKT-NH2 [Peptide 717.42] is 8.51

pIC50 for YARFQSQTTLEAKT-NH2 [Peptide 717.22] is 7.93

pIC50 for LVEALYLVSGERGFFYTPKT [Peptide 734.03] is 5.94

pIC50 for KYLATASTMDHARHGFLP [Peptide 765.02] is 7.00

pIC50 for YARFASQTTLKAKT-NH2 [Peptide 717.56] is 8.28

pIC50 for YAEFQAEKTLKAAS-NH2 [Peptide 717.05] is 8.19

pIC50 for RLANSLVHSSNNFGAILSS [Peptide 735.03] is 7.96

pIC50 for YARFQSQTTAKAKT-NH2 [Peptide 717.51] is 8.21

pIC50 for YARFQSQTTLAAKT-NH2 [Peptide 717.50] is 8.51

pIC50 for YARFQSLTTLKAKT-NH2 [Peptide 717.15] is 8.70

pIC50 for LLVIVELIPSTSS [Peptide 778.00] is 7.55

pIC50 for YARFQSQTTLKAKA-NH2 [Peptide 717.48] is 8.59

pIC50 for YARFQSQTTLKART-NH2 [Peptide 717.25] is 8.92

pIC50 for YARFQSQATLKAKT-NH2 [Peptide 717.53] is 8.04

pIC50 for CPIAIMSALAMVYLGAKDS [Peptide 705.04] is 6.05

pIC50 for NPVVHFFKNIVTPRTPPPS [Peptide 765.09] is 8.13

pIC50 for YARFQRQTTLKIAT [Peptide 716.01] is 7.78

pIC50 for LSGSHLVEALYLVSGERGFF [Peptide 734.02] is 6.06

pIC50 for YARFQSNTTLKAKT-NH2 [Peptide 717.47] is 8.42

pIC50 for TSATQRLANSLVHSSNNFG [Peptide 735.02] is 8.27

pIC50 for LMAMGITDVFSSSANLSGI [Peptide 705.08] is 7.85

pIC50 for YARFQSQTTKKAKT-NH2 [Peptide 717.20] is 7.90

pIC50 for Ac-AFAAAATLKA-NH2 [Peptide 770.02] is 7.67

pIC50 for YARFQSQTYLKAKT-NH2 [Peptide 717.33] is 6.73

pIC50 for YARFQSQTVLKAKT-NH2 [Peptide 717.32] is 8.24

pIC50 for YAKFQSQTTLKAKT-NH2 [Peptide 717.40] is 8.31

pIC50 for YARFQSQSTLKAKT-NH2 [Peptide 717.16] is 8.74

pIC50 for YAAYVKLTAARKFA-NH2 [Peptide 806.03] is 7.67

pIC50 for AAFAAAAAQRLFA-NH2 [Peptide 761.01] is 7.52

pIC50 for YAAFQSQTTLKAKT-NH2 [Peptide 717.30] is 8.12

pIC50 for ASQKRPSQRSKYLATAST [Peptide 765.011] is 6.49

pIC50 for YARFQSQTTLKAAT-NH2 [Peptide 717.49] is 8.18

pIC50 for YARFASQTTLKAKT-NH2 [Peptide 782.02] is 8.60

pIC50 for YARFQSQTPLKAKT-NH2 [Peptide 717.37] is 8.05

pIC50 for LVHSSNNFGAILSSTNVGS [Peptide 735.04] is 7.96

pIC50 for YARFQSQTTLKAKT [Peptide 717.67] is 8.22

pIC50 for YASFVSQTAQRLFY-NH2 [Peptide 717.03] is 7.96
